system: Human lymphoma U937 cells; test: Cellular uptake of [3H]-AEA; type: cell-based; conditions: U-937, 100 nM AEA, 15 min pre-incubation, 15 min at 37°C
OBSERVATION_TYPE: EC50 (nM)
Output spec: scalar in nM, unitless text.

Prompt: Provide EC50 value for the following compound: CCCCCCCCCCCC(=O)Nc1ccc2oc(=O)n(C)c2c1 [API]
Response: 4
